tested_target: Glucagon receptor (Homo sapiens)
Sequence (P47871 whole entry): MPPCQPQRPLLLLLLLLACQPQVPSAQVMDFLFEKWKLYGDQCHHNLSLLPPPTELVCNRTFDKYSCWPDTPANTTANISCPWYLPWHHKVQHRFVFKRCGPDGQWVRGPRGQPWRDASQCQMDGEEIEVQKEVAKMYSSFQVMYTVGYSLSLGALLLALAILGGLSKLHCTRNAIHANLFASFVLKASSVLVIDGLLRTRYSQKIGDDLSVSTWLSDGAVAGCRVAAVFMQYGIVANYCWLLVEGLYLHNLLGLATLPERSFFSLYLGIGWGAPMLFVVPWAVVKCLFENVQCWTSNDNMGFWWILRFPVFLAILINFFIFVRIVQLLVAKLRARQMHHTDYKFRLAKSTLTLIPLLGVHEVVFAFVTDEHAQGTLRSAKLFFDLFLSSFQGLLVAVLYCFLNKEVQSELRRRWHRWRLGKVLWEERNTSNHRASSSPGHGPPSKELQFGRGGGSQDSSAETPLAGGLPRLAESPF
experimental_protocol: Antagonist activity at human GCGR expressed in CHO cells assessed as inhibition of glucagon-stimulated cAMP production preincubated for 30 mins followed by glucagon induction measured after 45 mins by LANCE assay
Format: functional, cell-based
pIC50: −log10 of the molar value.
Label TRUE when pIC50 is at or above 6; otherwise label FALSE.

Reference set (5 entries):
substance_smiles: Cc1cccc(C2=N[C@]3(CC[C@@H](C(C)(C)C)CC3)N([C@H](C)c3ccc(C(=O)NCCC(=O)O)cc3)C2=O)c1
group_label: TRUE
--
substance_smiles: CC1(CC[C@H](c2ccc(C(=O)NCc3nn[nH]n3)cc2)N2C(=O)C(c3cc(Cl)cc(Cl)c3)=N[C@]23CC[C@@H](C(C)(C)C)CC3)CC1
group_label: TRUE
--
substance_smiles: CC(C)(C)CC[C@H](c1ccc(C(=O)NCc2nn[nH]n2)cc1)N1C(=O)C(c2ccc(C(F)(F)F)cc2)=N[C@]12CC[C@@H](C(C)(C)C)CC2
group_label: TRUE
--
substance_smiles: C[C@H](c1ccc(C(=O)NCCC(=O)O)cc1)N1C(=O)C(c2ccccc2F)=N[C@]12CC[C@@H](C(C)(C)C)CC2
group_label: TRUE
--
substance_smiles: CC(C)(C)CC[C@H](c1ccc(C(=O)NCc2nn[nH]n2)cc1)N1C(=O)C(c2ncccc2C(F)(F)F)=N[C@]12CC[C@@H](C(C)(C)C)CC2
group_label: FALSE

Turning now to a further compound:
Ask | I'd appreciate it if you could say whether CC(C)(C)[C@H]1CC[C@]2(CC1)N=C(c1ccccc1Cl)C(=O)N2Cc1ccc(C(=O)NCCC(=O)O)cc1 has pIC50 at least equal to 6.
Reply | FALSE
